# Method Notes: Liver-targeted tissue distribution profile study in rats
# Type: in vivo, Sprague Dawley rats
# Run Parameters: rat, single 10 mg/kg PO, liver, 4 h
# Description: Plasma and liver (target organ) concentrations of test compounds were determined in rats following a single per os (PO) administration of the test compounds. […] Plasma and liver homogenate samples were processed by protein precipitation using acetonitrile and the concentrations of the test compounds were determined by liquid chromatography-tandem mass spectrometry (SciEx triple quad 5500+ with Exion UPLC). […]
Readout Type: Measured Compound Concentrations Liver - 4 h

Item Smiles	Test Result
NS(=O)(=O)c1ccc(Cc2c(-c3ccc(C(F)F)cc3)nn(-c3nc(C(=O)O)cs3)c2CC2CC2)cc1F	++ (5 μM≥++>1 μM)
NS(=O)(=O)c1ccc(Cc2c(-c3cccc(OC(F)(F)F)c3)nn(-c3nc(C(=O)O)cs3)c2CC2CC2)cc1F	+++ (10 μM≥+++>5 μM)
NS(=O)(=O)c1ccc(Cc2c(-c3ccc(F)c(F)c3)nn(-c3nc(C(=O)O)cs3)c2CC2CC2)cc1F	+++ (10 μM≥+++>5 μM)
NS(=O)(=O)c1ccc(Cc2c(-c3cccc(OCC(F)(F)F)c3)nn(-c3nc(C(=O)O)cs3)c2CC2CC2)cc1F	++ (5 μM≥++>1 μM)
